These data points were gathered from patent US20240391954A1.

target: human MC3R (Homo sapiens, UniProt P41968); construct: expressed in transfected cells; host or cells: HEK-293 cells stably expressing the GScAMP22F split-luciferase cAMP sensor (parent reporter line from Promega); MC3R clone generated in-house, G418 selection; assay: split-luciferase cAMP sensor assay, agonist mode (measurement window 1), hMC3R; assay type: cell-based; details: agonist mode, hMC3R stable cell line; read-out: MC3R cAMP % max activation
Sequence (P41968 whole entry): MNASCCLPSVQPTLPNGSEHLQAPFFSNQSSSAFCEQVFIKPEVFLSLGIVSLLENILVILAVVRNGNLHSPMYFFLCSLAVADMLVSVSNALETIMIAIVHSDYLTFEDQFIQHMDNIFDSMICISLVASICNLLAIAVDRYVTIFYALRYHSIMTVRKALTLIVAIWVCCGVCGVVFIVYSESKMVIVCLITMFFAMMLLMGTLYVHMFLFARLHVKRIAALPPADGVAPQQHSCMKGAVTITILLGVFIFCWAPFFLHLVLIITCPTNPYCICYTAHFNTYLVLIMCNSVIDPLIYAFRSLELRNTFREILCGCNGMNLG
Positions of bridges follow the written chain, without caps; N, C: chain ends. Non-standard residues stand in square brackets, D forms with d. Residues, ends and D or L forms follow the SMILES beside them. dPhe(4-Br) = N[C@H](Cc1ccc(Br)cc1)C(=O)O; Tic = O=C(O)[C@@H]1Cc2ccccc2CN1; Aib = CC(C)(N)C(=O)O
Readings of Emax for the listed compounds
Measurement kind: Emax

Compound | Measured result
CC(=O)N[C@@H](CCCNC(=N)N)C(=O)N[C@H]1CSSC[C@@H](C(N)=O)NC(=O)[C@@H]2Cc3ccccc3CN2C(=O)[C@H](CCCNC(=N)N)NC(=O)[C@@H](Cc2ccc(Br)cc2)NC(=O)[C@H](CCCNC(=N)N)NC(=O)[C@@H](C)NC1=O [CTX-1259] (Ac-RC[dA]R[dPhe(4-Br)]R[Tic]C-NH2; disulfide 2-8 (inferred)) | 27%
CC(=O)N[C@@H](CCCNC(=N)N)C(=O)N[C@H]1CSSC[C@@H](C(N)=O)NC(=O)[C@@H](Cc2c[nH]c3ccccc23)NC(=O)[C@@H](CCCNC(=N)N)NC(=O)[C@@H](Cc2ccc(Br)cc2)NC(=O)[C@H](CCCNC(=N)N)NC(=O)[C@@H](C)NC1=O [CTX-1252] (Ac-RC[dA]R[dPhe(4-Br)][dR][dW]C-NH2; disulfide 2-8 (inferred)) | 1.1%
CC(=O)N[C@@H](CCCNC(=N)N)C(=O)N[C@H]1CSSC[C@@H](C(N)=O)NC(=O)[C@@H](Cc2c[nH]c3ccccc23)NC(=O)[C@H](CCCNC(=N)N)NC(=O)[C@@H](Cc2ccc(Br)cc2)NC(=O)[C@H](CCCNC(=N)N)NC(=O)C(C)(C)NC1=O [CTX-1246] (Ac-RC[Aib]R[dPhe(4-Br)]R[dW]C-NH2; disulfide 2-8 (inferred)) | 21%
